# System: Sarcina lutea PCI 1001
# method: MIC, standard serial dilution on nutrient agar
# Assay type: cell-based
# run_parameters: Micrococcus luteus, PCI1001, 18 h
metric_name: MIC (µg/mL)
Answers are plain numbers, in µg/mL.

Before answering, review these 4 worked examples.
compound: NC[C@@H]1CC[C@@H](N)[C@@H](O[C@H]2[C@H](O)[C@@H](O[C@H]3O[C@H](CO)[C@@H](O)[C@H](N)[C@H]3O)[C@H](N)C[C@@H]2N)O1
assayed_system: Sarcina lutea PCI 1001
output_unit: µg/mL
MIC: 25

compound: NCC1CCC(O)C(OC2C(N)CC(NC(=O)C(O)CN)C(OC3OC(CO)C(O)C(N)C3O)C2O)O1 (racemic)
assayed_system: Sarcina lutea PCI 1001
output_unit: µg/mL
MIC: 6.25

compound: NCC[C@H](O)C(=O)N[C@@H]1C[C@H](N)[C@@H](O[C@H]2O[C@H](CN)[C@@H](O)[C@H](O)[C@H]2O)[C@H](O)[C@H]1O[C@H]1O[C@H](CO)[C@@H](O)[C@H](N)[C@H]1O
assayed_system: Sarcina lutea PCI 1001
output_unit: µg/mL
MIC: 3.12

compound: NCC1CCC(O)C(OC2C(N)CC(N)C(OC3OC(CO)C(O)C(N)C3O)C2O)O1 (centres unmarked)
assayed_system: Sarcina lutea PCI 1001
output_unit: µg/mL
MIC: 12.5

q: Respond only with MIC recorded for NCC1OC(OC2C(N)CC(N)C(OC3OC(CO)C(O)C(N)C3O)C2O)C(O)C(O)C1O (centres unmarked)
a: 12.5
